Experiment: xn = mol fraction of the nth substance listed, in the solute-free solvent
Details: 313.15 K; x2 = 0.3
Attribute: solubility (g/100 g solution)
propertyLabel: solubility (g/100 g solution)

| compound | quantitativeResult |
| --- | --- |
| CC(N)C(=O)O (stereo unspecified) + O + CC(C)=O | 0.0696 |
| S=c1[nH]ncs1 + CC(C)=O + O | 28.1 |
| CC(N)C(=O)O (stereo unspecified) + O + CC(C)O | 0.0784 |
| S=c1[nH]ncs1 + CCO + O | 15.5 |
| Cc1ncc(C[n+]2csc(CCO)c2C)c(N)n1.O=[N+]([O-])[O-] + O + CC(C)=O | 0.193 |
| CC(N)C(=O)O (stereo unspecified) + O + CCO | 0.136 |

----------
Experiment: xn = mol fraction of the nth substance listed, in the solute-free solvent
Conditions: 288.15 K; x2 = 0.1
propertyLabel: solubility (g/100 g solution)

| compound | propertyLabel | quantitativeResult |
| --- | --- | --- |
| Cc1ncc(C[n+]2csc(CCO)c2C)c(N)n1.O=[N+]([O-])[O-] + O + CO | solubility (g/100 g solution) | 0.273 |
| S=c1[nH]ncs1 + CCO + O | solubility (g/100 g solution) | 1.26 |
| S=c1[nH]ncs1 + CO + O | solubility (g/100 g solution) | 0.906 |
| S=c1[nH]ncs1 + CCCO + O | solubility (g/100 g solution) | 2.71 |
| S=c1[nH]ncs1 + CC(C)=O + O | solubility (g/100 g solution) | 2.99 |

----------
Attribute: solubility (g/100 g solution)
Test: xn = mol fraction of the nth substance listed, in the solute-free solvent
Details: 313.15 K; x2 = 0.6
propertyLabel: solubility (g/100 g solution)

| molecule | quantitativeResult |
| --- | --- |
| OCCN(CCO)c1nc(N2CCCCC2)c2nc(N(CCO)CCO)nc(N3CCCCC3)c2n1 + CC(C)O + O | 20.8 |
| CC(N)C(=O)O (stereo not given) + O + CCCO | 1.12 |
| CCCCCOC(=O)Nc1nc(=O)n(C2OC(C)C(O)C2O)cc1F (stereo not given) + CCOC(C)=O + CCCCCC | 1.22 |
| Cc1ncc(C[n+]2csc(CCO)c2C)c(N)n1.O=[N+]([O-])[O-] + O + CC(C)O | 1.57 |
| CC(N)C(=O)O (stereo not given) + O + CCO | 1.05 |

----------
Experiment: xn = mol fraction of the nth substance listed, in the solute-free solvent
Details: 298.15 K; x2 = 0.08908

| compound | solubility (g/100 g solution) |
| --- | --- |
| Cc1[nH]c(=O)c(C#N)cc1-c1ccncc1 + CCO + O | 0.00169 |
| CC(C)OC(=O)C(C)NP(=O)(OCC1OC(n2ccc(=O)[nH]c2=O)C(C)(F)C1O)Oc1ccccc1 (centres undefined) + CCO + O | 4.44 |
| COc1cc2c(cc1OC)-c1cc3ccc(OC)c(OC)c3c[n+]1CC2.[Cl-] + CCO + O | 2.4 |
| Nc1cccc(S(=O)(=O)c2cccc(N)c2)c1 + CCO + O | 0.3 |

----------
Assay: xn = mol fraction of the nth substance listed, in the solute-free solvent
Details: 313.15 K; x2 = 0.1139
Tick TRUE if solubility (g/100 g solution) is 0.1 or greater. Tick FALSE if solubility (g/100 g solution) is less than 0.1.

| compound | label |
| --- | --- |
| Nc1nccnc1Cl + CC(C)O + O | TRUE |
| Nc1cccc(S(=O)(=O)c2cccc(N)c2)c1 + CC(C)O + O | TRUE |
| c1ccc2[nH]c(-c3cscn3)nc2c1 + CC(C)O + O | FALSE |
| Cc1[nH]c(=O)c(C#N)cc1-c1ccncc1 + CC(C)O + O | FALSE |
| CN1CCN(C2=Nc3cc(Cl)ccc3Nc3ccccc32)CC1 + CC(C)O + O | TRUE |

Numbers sourced from the CheMixHub drug solubility set.
